Values from paper PMC9586938

Biological target: catalytic domain of recombinant human CAIX (Homo sapiens)
Construct: Isozymes CAIX, CAXII, and CAXIV were the catalytic domains of the proteins; made in house; host or cells: mammalian cells
Assay: Thermal shift assay (TSA), recombinant CAIX catalytic domain
Type: binding
Conditions: recombinantly purified CAIX; read-out: Kd for purified CAIX by TSA

# Compound Smiles, Kd, nM
data = [
    ("NS(=O)(=O)c1c(F)c(F)c(S(=O)(=O)CCC(=O)O)c(NC2CCCCCCC2)c1F", 0.033),
]

----------
Biological target: CAIX expressed on live HeLa cells (Homo sapiens)
Construct: recombinant CAIX and endogenous CAIX expressed on the cell surface; endogenous in cells; host or cells: HeLa (WT), grown under hypoxia (1% O2)
Assay: Competition of unlabeled compound with 10 nM GZ19-32 on hypoxic HeLa cells (competitive binding model)
Format: cell-based
Conditions: fit parameter of the competitive binding model, HeLa cells; read-out: KdB (competing fluorescent compound, component B)
pKd: −log10 of the molar value.

# Compound Smiles, Target Under Test, pKd
data = [
    ("NS(=O)(=O)c1c(F)c(F)c(S(=O)(=O)CCC(=O)Nc2ccc3c(c2)C(=O)OC32c3ccc(O)cc3Oc3cc(O)ccc32)c(NC2CCCCCCC2)c1F", "CAIX expressed on live HeLa cells (Homo sapiens)", 9.70),
]

----------
# Molecule, melting point
data = [
    ("NS(=O)(=O)c1c(F)c(F)c(S(=O)(=O)CCC(=O)Nc2ccc3c(c2)C(=O)OC32c3ccc(O)cc3Oc3cc(O)ccc32)c(F)c1F [GZ19-31]", "175 to 176 °C"),
    ("CS(=O)(=O)c1c(F)c(F)c(SCCC(=O)Nc2ccc3c(c2)C(=O)OC32c3ccc(O)cc3Oc3cc(O)ccc32)c(F)c1F [GZ19-33]", "181 to 182 °C"),
    ("NS(=O)(=O)c1c(F)c(F)c(S(=O)(=O)CCC(=O)O)c(NC2CCCCCCC2)c1F [GZ18-23]", "143 to 144 °C"),
    ("NS(=O)(=O)c1c(F)c(F)c(S(=O)(=O)CCC(=O)Nc2ccc3c(c2)C(=O)OC32c3ccc(O)cc3Oc3cc(O)ccc32)c(NC2CCCCCCC2)c1F [GZ19-32]", "189 to 190 °C"),
    ("NS(=O)(=O)c1c(F)c(F)c(S(=O)(=O)CCC(=O)NCCCC(=O)Nc2ccc3c(c2)C(=O)OC32c3ccc(O)cc3Oc3cc(O)ccc32)c(NC2CCCCCCC2)c1F [GZ20-40]", "180 to 181 °C"),
]

----------
Target: CAIV (Homo sapiens)
Sequence (P22748 19-312): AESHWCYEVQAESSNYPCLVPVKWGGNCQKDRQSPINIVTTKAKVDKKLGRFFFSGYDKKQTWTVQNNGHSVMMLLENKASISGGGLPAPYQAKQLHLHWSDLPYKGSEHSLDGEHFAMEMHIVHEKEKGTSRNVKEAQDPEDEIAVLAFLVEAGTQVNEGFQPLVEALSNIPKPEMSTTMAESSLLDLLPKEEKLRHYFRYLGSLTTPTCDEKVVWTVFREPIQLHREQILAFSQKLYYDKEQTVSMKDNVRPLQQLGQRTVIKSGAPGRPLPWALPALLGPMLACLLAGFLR
Assay: Thermal shift assay (TSA), recombinant CAIV
Conditions: 37 °C, pH 7.0, observed (not intrinsic)
pKd: −log10 of the molar value.

# Compound Smiles, Target Under Test, Modifier Sign, pKd
measured = [
    ("NS(=O)(=O)c1c(F)c(F)c(S(=O)(=O)CCC(=O)O)c(NC2CCCCCCC2)c1F", "CAIV (Homo sapiens)", "=", 6.92),
    ("CS(=O)(=O)c1c(F)c(F)c(SCCC(=O)Nc2ccc3c(c2)C(=O)OC32c3ccc(O)cc3Oc3cc(O)ccc32)c(F)c1F", "CAIV (Homo sapiens)", "<", 4.00),
    ("NS(=O)(=O)c1c(F)c(F)c(S(=O)(=O)CCC(=O)Nc2ccc3c(c2)C(=O)OC32c3ccc(O)cc3Oc3cc(O)ccc32)c(NC2CCCCCCC2)c1F", "CAIV (Homo sapiens)", "=", 7.00),
    ("NS(=O)(=O)c1c(F)c(F)c(S(=O)(=O)CCC(=O)NCCCC(=O)Nc2ccc3c(c2)C(=O)OC32c3ccc(O)cc3Oc3cc(O)ccc32)c(NC2CCCCCCC2)c1F", "CAIV (Homo sapiens)", "=", 6.30),
    ("NS(=O)(=O)c1c(F)c(F)c(S(=O)(=O)CCC(=O)Nc2ccc3c(c2)C(=O)OC32c3ccc(O)cc3Oc3cc(O)ccc32)c(F)c1F", "CAIV (Homo sapiens)", "=", 6.85),
]
